Assay: Single-dose pharmacokinetics, IV and oral
Details: male, CD-1, mouse, serum, po, 10 mg/kg

{"Compound": "Nc1ccc(N2CCOCC2)c2nonc12 [compound 11]", "MRT last [h]": 1.15}

---

Experiment: Single-dose pharmacokinetics, IV and oral
Conditions: male, CD-1, mouse, in vivo, iv, 2 mg kg-1
Quantity name: concentration at 1 h (ng/mL)

{"Compound": "Nc1ccc(N2CCOCC2)c2nonc12 [compound 11]", "Quantity name": "concentration at 1 h", "Measured value": 3.5}

---

Target: UniProtKB P05177
Sequence (P05177 1-516): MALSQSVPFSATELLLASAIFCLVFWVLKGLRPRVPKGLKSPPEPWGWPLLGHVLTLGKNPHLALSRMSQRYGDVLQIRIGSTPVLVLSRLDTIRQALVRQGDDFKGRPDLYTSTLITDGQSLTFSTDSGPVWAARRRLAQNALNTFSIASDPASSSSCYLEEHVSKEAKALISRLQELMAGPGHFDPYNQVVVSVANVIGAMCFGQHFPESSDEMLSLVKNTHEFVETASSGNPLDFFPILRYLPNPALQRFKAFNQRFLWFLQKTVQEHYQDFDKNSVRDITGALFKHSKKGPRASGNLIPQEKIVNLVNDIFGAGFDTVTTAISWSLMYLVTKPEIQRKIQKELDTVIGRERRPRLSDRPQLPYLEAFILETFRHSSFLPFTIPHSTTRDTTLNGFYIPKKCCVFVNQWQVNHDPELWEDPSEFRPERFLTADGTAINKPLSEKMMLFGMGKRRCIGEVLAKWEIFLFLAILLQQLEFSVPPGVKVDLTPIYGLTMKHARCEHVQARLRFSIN
Experiment: CYP inhibition screening in microsomes
Details: pH 7.4
Measured inhibition at 10 min, 3 µM values are reported for all entries that follow.
Quantity name: inhibition at 10 min, 3 µM

{"Molecule": "Cc1cccc(NCc2ccc(O)c3ncccc23)c1C", "Measured value": "28.4%"}
{"Molecule": "Cn1c(=O)[nH]c(=O)c2c1nc(S)n2CC(O)COc1ccc(Cl)cc1 (centres unmarked)", "Measured value": "-7.6%"}
{"Molecule": "Nc1ccc(N2CCOCC2)c2nonc12", "Measured value": "13.1%"}
{"Molecule": "COc1ccc(N2CCN(C(c3ccc(N(C)C)cc3)c3nnnn3C(C)(C)C)CC2)cc1 (centres unmarked)", "Measured value": "13.5%"}
{"Molecule": "CCN(CC)c1ccc(CN2CCc3nc(C)[nH]c(=O)c3C2)c(OC)c1", "Measured value": "23.7%"}

---

Experiment: Single-dose pharmacokinetics, IV and oral
Conditions: male, CD-1, mouse, serum, po, 10 mg/kg
Quantity name: Cmax (ng/mL)

{"Smiles record": "Nc1ccc(N2CCOCC2)c2nonc12", "Measured value": 447}

---

Experiment: Single-dose pharmacokinetics, IV and oral
Settings: male, CD-1, mouse, in vivo, iv, 2 mg kg-1

{"Smiles record": "Nc1ccc(N2CCOCC2)c2nonc12", "Output unit": "ng/mL", "concentration at 0.5 h": 13.3}

---

Assay: Single-dose pharmacokinetics, IV and oral
Conditions: male, CD-1, mouse, serum, iv, 2 mg/kg

{"Smiles record": "Nc1ccc(N2CCOCC2)c2nonc12", "AUC(0-t)": "61.1 ng·h/mL"}

---

Tested on: CYP3A
Test: CYP inhibition screening in microsomes
Settings: human, pH 7.4
Quantity name: inhibition at 10 min, 3 µM (%)

{"Compound": "Nc1ccc(N2CCOCC2)c2nonc12 [compound 11]", "Study target": "CYP3A", "Measured value": 4.1}

---

Assay: Single-dose pharmacokinetics, IV and oral
Conditions: male, CD-1, mouse, in vivo, po, 10 mg kg-1

{"Smiles record": "Nc1ccc(N2CCOCC2)c2nonc12", "concentration at 0.5 h / ng/mL": 81.1}

---

Experiment: Single-dose pharmacokinetics, IV and oral
Settings: male, CD-1, mouse, serum, po, 10 mg/kg

{"Compound": "Nc1ccc(N2CCOCC2)c2nonc12 [compound 11]", "Output unit": "mL/min/kg", "CL/F": 824}

---

Assay: Single-dose pharmacokinetics, IV and oral
Conditions: male, CD-1, mouse, serum, po, 10 mg/kg

{"Smiles record": "Nc1ccc(N2CCOCC2)c2nonc12", "AUC(0-t) [ng·h/mL]": 211}

---

Target: δ-secretase in Pala cells (Homo sapiens)
Sequence (Q99538 18-433): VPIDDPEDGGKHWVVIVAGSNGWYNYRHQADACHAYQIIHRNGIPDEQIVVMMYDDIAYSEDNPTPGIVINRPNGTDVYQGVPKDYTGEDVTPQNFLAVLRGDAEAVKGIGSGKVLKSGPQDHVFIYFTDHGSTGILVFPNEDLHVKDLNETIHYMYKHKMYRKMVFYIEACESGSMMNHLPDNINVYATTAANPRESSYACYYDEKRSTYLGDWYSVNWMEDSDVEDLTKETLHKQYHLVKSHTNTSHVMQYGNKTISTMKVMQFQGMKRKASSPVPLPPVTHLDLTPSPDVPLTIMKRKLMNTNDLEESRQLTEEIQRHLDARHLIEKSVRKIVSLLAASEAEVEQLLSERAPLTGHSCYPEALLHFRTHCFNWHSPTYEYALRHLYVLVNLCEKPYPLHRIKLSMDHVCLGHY
Assay: δ-secretase inhibition in intact Pala cells

{"Compound": "N#CSc1cnc(N)s1", "IC50 / nM": 7860}
{"Compound": "CCN(CC)c1ccc(CN2CCc3nc(C)[nH]c(=O)c3C2)c(OC)c1", "IC50 / nM": 290}
{"Compound": "Cc1cccc(NCc2ccc(O)c3ncccc23)c1C", "IC50 / nM": 430}
{"Compound": "COc1ccc(N2CCN(C(c3ccc(N(C)C)cc3)c3nnnn3C(C)(C)C)CC2)cc1 (centres unmarked)", "IC50 / nM": 670}
{"Compound": "Cn1c(=O)[nH]c(=O)c2c1nc(S)n2CC(O)COc1ccc(Cl)cc1 (centres unmarked)", "IC50 / nM": 110}

---

Experiment: Liver microsomal stability, mouse
Details: Mouse microsomes, 30 min, 37 °C

{"Molecule": "Nc1ccc(N2CCOCC2)c2nonc12", "Mean Remaining Parent (with NADPH) / %": 20}
{"Molecule": "Cn1c(=O)[nH]c(=O)c2c1nc(S)n2CC(O)COc1ccc(Cl)cc1 (stereo not shown)", "Mean Remaining Parent (with NADPH) / %": 98}
{"Molecule": "Cc1cccc(NCc2ccc(O)c3ncccc23)c1C", "Mean Remaining Parent (with NADPH) / %": 1}
{"Molecule": "COc1ccc(N2CCN(C(c3ccc(N(C)C)cc3)c3nnnn3C(C)(C)C)CC2)cc1 (stereo not shown)", "Mean Remaining Parent (with NADPH) / %": 16}

---

Assay: Serum and brain level after chronic oral dosing
Settings: tau P301S, mouse, in vivo, 10 mg kg-1d-1, Concentration in the brain, oral 10 mg kg-1d-1, 3 months, 1 hour after last dose, Sample #1

{"Smiles record": "Nc1ccc(N2CCOCC2)c2nonc12", "Output unit": "ng/g", "concentration at 1 h": 206}

---

Target: δ-secretase (Homo sapiens, UniProt Q99538)
Construct: tested with purified active δ-secretase, IC50 values for the top 8 candidates were calculated; purchased Sino Biological (Beijing, China)
Sequence (Q99538 18-323 limits assumed): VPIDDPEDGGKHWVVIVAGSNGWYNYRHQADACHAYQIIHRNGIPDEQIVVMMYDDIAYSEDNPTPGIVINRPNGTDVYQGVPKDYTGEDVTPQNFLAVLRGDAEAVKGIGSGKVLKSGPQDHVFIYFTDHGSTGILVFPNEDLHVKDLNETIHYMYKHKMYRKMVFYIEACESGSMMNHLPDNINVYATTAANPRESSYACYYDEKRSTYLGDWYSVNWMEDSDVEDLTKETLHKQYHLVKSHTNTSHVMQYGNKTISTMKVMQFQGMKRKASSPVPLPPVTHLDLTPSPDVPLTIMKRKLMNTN
Assay: IC50 assay with purified recombinant δ-secretase (AEP), substrate Cbz-Ala-Ala-Asn-AMC
Type: biochemical
Conditions: purified active δ-secretase; read-out: IC50 / potency toward δ-secretase
Quantity name: IC50

{"Compound": "Cn1c(=O)[nH]c(=O)c2c1nc(S)n2CC(O)COc1ccc(Cl)cc1 (stereo not shown) [compound 38]", "Quantity name": "IC50", "Measured value": "~370 nM"}

---

Test: Serum and brain level after chronic oral dosing
Details: tau P301S, mouse, in vivo, 10 mg kg-1d-1, Compound #11 in the serum, oral 10 mg kg-1d-1, 3 months, 1 hour after last dose, Sample #2
Quantity name: concentration at 1 h (ng/mL)

{"Compound": "Nc1ccc(N2CCOCC2)c2nonc12 [compound 11]", "Quantity name": "concentration at 1 h", "Output unit": "ng/mL", "Measured value": 59}

---

Measured inhibition at 10 min, 10 µM values are reported for all entries that follow.
Target: CYP2C19 (Homo sapiens, UniProt P33261)
Sequence (P33261 whole entry): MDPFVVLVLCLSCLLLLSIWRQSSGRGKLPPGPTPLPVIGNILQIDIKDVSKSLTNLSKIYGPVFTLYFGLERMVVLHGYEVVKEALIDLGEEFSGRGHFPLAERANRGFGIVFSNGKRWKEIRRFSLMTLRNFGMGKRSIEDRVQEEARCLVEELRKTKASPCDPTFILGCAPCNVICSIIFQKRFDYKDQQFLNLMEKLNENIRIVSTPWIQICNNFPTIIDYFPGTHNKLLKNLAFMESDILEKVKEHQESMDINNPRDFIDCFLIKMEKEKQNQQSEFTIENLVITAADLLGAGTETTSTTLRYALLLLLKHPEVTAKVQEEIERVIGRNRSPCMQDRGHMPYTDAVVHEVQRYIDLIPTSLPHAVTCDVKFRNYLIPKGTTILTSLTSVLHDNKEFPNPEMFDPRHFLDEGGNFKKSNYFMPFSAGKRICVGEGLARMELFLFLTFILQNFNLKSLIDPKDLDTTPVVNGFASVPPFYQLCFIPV
Test: CYP inhibition screening in microsomes
Details: pH 7.4
Quantity name: inhibition at 10 min, 10 µM (%)

{"Compound": "Nc1ccc(N2CCOCC2)c2nonc12 [compound 11]", "Quantity name": "inhibition at 10 min, 10 µM", "Measured value": 6.8}
{"Compound": "Cc1cccc(NCc2ccc(O)c3ncccc23)c1C [compound 12]", "Quantity name": "inhibition at 10 min, 10 µM", "Measured value": 29.4}
{"Compound": "CCN(CC)c1ccc(CN2CCc3nc(C)[nH]c(=O)c3C2)c(OC)c1 [compound 64]", "Quantity name": "inhibition at 10 min, 10 µM", "Measured value": 20.4}
{"Compound": "Cn1c(=O)[nH]c(=O)c2c1nc(S)n2CC(O)COc1ccc(Cl)cc1 (centres unmarked) [compound 38]", "Quantity name": "inhibition at 10 min, 10 µM", "Measured value": 9.5}
{"Compound": "COc1ccc(N2CCN(C(c3ccc(N(C)C)cc3)c3nnnn3C(C)(C)C)CC2)cc1 (centres unmarked) [compound 31]", "Quantity name": "inhibition at 10 min, 10 µM", "Measured value": 55.7}

---

Molecular target: CYP2C9 (Homo sapiens)
Sequence (P11712 whole entry): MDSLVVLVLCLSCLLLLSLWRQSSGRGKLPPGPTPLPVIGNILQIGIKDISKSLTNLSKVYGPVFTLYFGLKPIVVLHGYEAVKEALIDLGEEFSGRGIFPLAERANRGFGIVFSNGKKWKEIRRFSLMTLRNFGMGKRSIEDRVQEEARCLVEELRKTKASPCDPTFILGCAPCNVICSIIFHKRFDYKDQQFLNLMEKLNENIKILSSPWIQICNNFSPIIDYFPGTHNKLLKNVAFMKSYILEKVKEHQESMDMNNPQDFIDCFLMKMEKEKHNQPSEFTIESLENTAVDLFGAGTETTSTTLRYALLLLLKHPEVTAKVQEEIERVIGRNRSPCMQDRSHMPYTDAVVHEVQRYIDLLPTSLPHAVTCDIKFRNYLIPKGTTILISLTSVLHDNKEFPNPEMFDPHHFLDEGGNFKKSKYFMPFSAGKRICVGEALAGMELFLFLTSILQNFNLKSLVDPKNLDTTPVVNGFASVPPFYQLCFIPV
Assay: CYP inhibition screening in microsomes
Conditions: pH 7.4

{"Molecule": "Cc1cccc(NCc2ccc(O)c3ncccc23)c1C", "Study target": "CYP2C9 (Homo sapiens)", "inhibition at 10 min, 10 µM": "-2.7%"}
{"Molecule": "Nc1ccc(N2CCOCC2)c2nonc12", "Study target": "CYP2C9 (Homo sapiens)", "inhibition at 10 min, 10 µM": "5.6%"}
{"Molecule": "Cn1c(=O)[nH]c(=O)c2c1nc(S)n2CC(O)COc1ccc(Cl)cc1 (centres unmarked)", "Study target": "CYP2C9 (Homo sapiens)", "inhibition at 10 min, 10 µM": "17.1%"}
{"Molecule": "CCN(CC)c1ccc(CN2CCc3nc(C)[nH]c(=O)c3C2)c(OC)c1", "Study target": "CYP2C9 (Homo sapiens)", "inhibition at 10 min, 10 µM": "7.9%"}
{"Molecule": "COc1ccc(N2CCN(C(c3ccc(N(C)C)cc3)c3nnnn3C(C)(C)C)CC2)cc1 (centres unmarked)", "Study target": "CYP2C9 (Homo sapiens)", "inhibition at 10 min, 10 µM": "69.2%"}
